Tested on: SK-MEL-2 melanoma
measurementDescription: NCI-60 one-dose screen, 48 h
conditionNotes: 10 µM unless noted
About 83,000 compounds went through this panel and 20% of them were active in at least one assay; those are over-represented in the sample as a whole. The source made the active and inactive calls. The calls were made as follows: active = growth percent below 10; inactive = the rest.
Use one of these outcomes when replying: y = active, n = inactive

Prompt: Could you check what this test reported for `Cc1ccc(/C=C(/C#N)n2nnc3cccc(F)c32)cc1` ?
Completion: n

Prompt: # lookup: test call for `C#Cc1cccc(NC(=O)Nc2cccc(NC(=O)CCl)c2)c1`
Completion: y

Prompt: Each compound tested received a call. Report the one for `Oc1cccc(CCc2ccc(Oc3cc(CCc4cccc(O)c4)cc(O)c3O)cc2)c1` .
Completion: n

Prompt: Tell me the assay call for `COc1ccc(C(=O)NNc2nc(Cl)nc(N3CCN(C(c4ccccc4)c4ccccc4)CC3)n2)cc1` please.
Completion: n

Prompt: I'd appreciate the recorded outcome for `COc1cccc(-c2cc(C(=O)Nc3ccc(/C=C/c4ccc(OC5CCN(C)CC5)cc4)cc3)ccc2OC)c1` from this test.
Completion: n

Prompt: Assay outcome for `COc1ccc(/C=C/C(=O)Nc2cc(/C=C\c3cc(OC)c(OC)c(OC)c3)cc(OC)c2OC)cc1OC` : what was it?
Completion: n

Prompt: Dear all, I need the recorded test outcome for `Cc1ccc(NC(=O)Cc2ccc(/C=C/C(=O)c3ncc[nH]3)cc2)cc1` , thank you.
Completion: n

Prompt: Hi, do you know how `COc1cc(/C=C2\COc3ccc(-c4ccccc4)cc3C2=O)cc(OC)c1` came out in this test?
Completion: n

Prompt: Look up the recorded call for COc1cc(C2=NN(C(C)=O)C(c3cc(OC)c(OC)c(OC)c3)C2)ccc1O (stereo not given) in this test.
Completion: n

Prompt: Tell me the assay call for `CCC(CC)NCC(C)(C)O` please.
Completion: n

###

Test system: SF-539 CNS
measurementDescription: NCI-60 one-dose screen, 48 h
conditionNotes: 10 µM unless noted
About 83,000 compounds went through this panel and 20% of them were active in at least one assay; those are over-represented in the sample as a whole. Activity calls are given as the source filed them. Rule for the calls: active = growth percent below 10; inactive = the rest.
Respond using exactly one of the listed classes: 1 (active), 0 (inactive)

Previously resolved entries follow.
compound=C=C1C(=O)O[C@H]2[C@H]1CC/C(COC(=O)NCCc1c[nH]c3ccc(OC)cc13)=C\CC[C@@]1(C)O[C@@H]21 measuredtarget="SF-539 CNS" answerlabel=1
compound=C#Cc1cccc(NC(=O)Nc2cccc(NC(=O)CCl)c2)c1 measuredtarget="SF-539 CNS" answerlabel=1
compound=O=C1Nc2cc(-c3ccc(NS(=O)(=O)c4ccccc4)cc3)ccc2/C1=C/c1ccc[nH]1 measuredtarget="SF-539 CNS" answerlabel=0

Prompt: For this compound, state the assay outcome: `COc1cc(/C(C)=C(\c2ccc(Cl)cc2)c2ccc(OCCN(C)C)cc2)ccc1F`
Completion: 0

###

Test system: HOP-62 NSCLC
measurementDescription: NCI-60 one-dose screen, 48 h
conditionNotes: 10 µM unless noted
Compounds without any hit were thinned out: in the full panel of roughly 83,000, 20% have a hit. The source made the active and inactive calls. How the source made its calls: active means growth percent below 10; inactive means the rest.
Field 'call' accepts class 1 = active, class 0 = inactive

molecule=COc1ccc(-c2cnc3c(-c4cccc5ncccc45)cnn3c2)cc1 answerlabel="class 1"

Prompt: Recorded test outcome, item COc1cc(NC(C)CCCNC(=O)CCC(=O)NCCCNCCCCCCCCNCCCNC(=O)CCC(=O)NCCCC(C)Nc2cc(OC)cc3cccnc23)c2ncccc2c1 (stereo not drawn)
Completion: class 0

Prompt: For `COc1cc(/C(C)=C(\c2ccc(Cl)cc2)c2ccc(OCCN(C)C)cc2)ccc1F` , which call appears in the assay record?
Completion: class 0

Prompt: Identify the outcome logged in this assay for the molecule shown: CC(C)(C)CC(C)(C)n1nnnc1C(NC12CC3CC(CC(C3)C1)C2)c1ccccc1 (stereo not drawn)
Completion: class 0

Prompt: Hi team, can someone confirm the assay call for `Cc1nn(-c2ccccc2)c(Oc2c(Cl)cccc2Cl)c1/C=N/N=c1\sc2ccccc2n1C` ?
Completion: class 0

Prompt: What classification did `Cc1ccc(NC(=O)c2cc(-c3nc4ccccc4s3)c(=O)n(NS(=O)(=O)c3ccc(Cl)cc3)c2N)cc1` end up with in this test?
Completion: class 0

Prompt: Could you kindly confirm the outcome this assay logged for COc1ccc(C(=O)Nc2cccc(C3CCc4c(cc(OC)c(OC)c4OC)O3)c2)cc1 (stereo not drawn) ?
Completion: class 0

Prompt: Fill in: this test's call for `CN1CCN(CCNc2nccc(-c3c(-c4cccc(O)c4)nc4sccn34)n2)S1(=O)=O` is ___
Completion: class 0
